- System: MCF7 cells
- assay-protocol: MTT antiproliferative activity assay, MCF7
- Format: cell-based
- conditions-used: Homo sapiens, MCF7; MTT, 72 h, mean ± S.D. (n = 3)
Reported IC50 by item:
parameter: IC50 (nM)

1. COc1ccc(NC(=O)c2c(N=Cc3ccc(F)cc3)c(C#N)c3n2CCC3)cc1 [Compound 16e]; 150
2. COc1ccc(NC(=O)c2c(N=Cc3ccc(Cl)cc3)c(C#N)c3n2CCC3)cc1 [Compound 16g]; 10
3. N#Cc1c(N=Cc2ccc(F)cc2)c(C(=O)Nc2ccc(F)cc2)n2c1CCC2 [Compound 16f]; 40400
4. CN(C)c1ccc(C=Nc2c(C#N)c3n(c2C(=O)Nc2ccc(F)cc2)CCC3)cc1 [Compound 16b]; 80
